- assayed system: protein origami tetrahedron TET12SN
- protocol text: ITC; nanobody titrated into the CC peptide dimer, the origami protein or a preformed nanobody-target complex; conditions in SI Appendix
pKd: −log10 of the molar value.
measured property: pKd

| binder | measured property | observed |
| --- | --- | --- |
| nanobody Nb28 (VHH) VHH: QVQLQESGGGLVQPGGSLRLSCAAPGFRLDNYVIGWFRQAPGKEREGVSCISSSAGSTYYADSVKGRFTISRDNAKNTVYLQMNSLKPEDTAVYYCATACYSSYVTYWGQGTQVTVSS | pKd | 7.41 |

(1) nanobody Nb34 (VHH) VHH: QVQLQESGGGLVQPGGSLRLSCAASQFTFSSDWMYWVRQAPGKGLEWVSSISPGGAATAYAASVKGRFTISRDNAKNTLYLQMNSLKSEDTAVYYCSKTRAGTGRGQGTQVTVSS
(2) nanobody Nb49 (VHH) VHH: QVQLQESGGGLVQPGGSLRLSCIASGRTFNPYGMGWFRQVPGKERTFVSGITWIGGTTYYVNSVKGRFTISRDRAKNTVYLQMNSLKPEDTAVYYCAADKDNTGYNYWGQGTQVTVSS
Exercise: Compare 1 and 2 by numeric pKd and name the larger one. Kindly give the label for the entry you pick.
Key: 2

(a) nanobody Nb30 (VHH) VHH: QVQLQESGGGLVQPGGSLRLSCAASGSIFSDNDMGWYRQPPGKQREWVATITYDHVTWYADSVKGRFAISRDNAKNTVYLQMNDLKPEDTAVYYCNAVPGRRGSWGQGTQVTVSS
(b) nanobody Nb26 (VHH) VHH: QVQLQESGGGLVQAGDSLRLSCAASGRTFSTYPMGWFRQAPGKEREFVAASSSRAYYADSVKGRFTISRNNAKNTVYLQMNSLKPEDTAVYYCVADSSPYYRRYDAAQDYDYWGQGTQVTVSS
Exercise: Sorting by pKd in descending order, would a or b appear first? Your answer should be the label attached to the chosen record.
Key: b
(b: 8.74, a: 6.46)

Attribution: paper PMC8092592
